- target: SST2 (Homo sapiens)
- Construct: host or cells: PathHunter CHO-K1 SST2 cells
- Sequence (P30874 whole entry): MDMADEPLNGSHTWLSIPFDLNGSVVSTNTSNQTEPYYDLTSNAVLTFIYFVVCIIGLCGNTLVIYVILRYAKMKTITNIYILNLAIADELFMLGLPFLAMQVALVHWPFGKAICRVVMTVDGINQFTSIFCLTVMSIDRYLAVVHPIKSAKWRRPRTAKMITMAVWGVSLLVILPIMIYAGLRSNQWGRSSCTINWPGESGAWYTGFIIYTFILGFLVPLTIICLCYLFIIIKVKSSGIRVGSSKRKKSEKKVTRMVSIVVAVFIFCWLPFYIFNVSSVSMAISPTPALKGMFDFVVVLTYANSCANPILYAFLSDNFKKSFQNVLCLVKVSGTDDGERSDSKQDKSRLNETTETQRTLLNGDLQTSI
- protocol: PathHunter CHO-K1 SST2 Internalization Assay
- Type: cell-based
- settings: PathHunter CHO-K1 SST2 cells; 90 min at 37 C; luminescence; read-out: Internalization EC50
measurementType: pEC50
pEC50 field: float, defined as -log10 of concentration (mol/L).

Record summary for CC[C@H](C)[C@@H]([C@@H](CC(=O)N1CCC[C@H]1[C@H](OC)[C@@H](C)C(=O)N[C@H](C)[C@@H](O)c1ccccc1)OC)N(C)C(=O)[C@@H](NC(=O)[C@H](C(C)C)N(C)C(=O)OCc1ccc(NC(=O)[C@H](CCCNC(N)=O)NC(=O)[C@@H](NC(=O)CCOCCOCCOCCOCCC(=O)N(C)CC(=O)NCCNc2ncc(-c3cc(C)cc(F)c3)c(N3CCC(N)CC3)c2-c2nc3ccc(Cl)cc3[nH]2)C(C)C)c(OCC(=O)O)c1)C(C)C [Compound 24] : reported pEC50 = 7.70

Looking up CC[C@H](C)[C@@H]([C@@H](CC(=O)N1CCC[C@H]1[C@H](OC)[C@@H](C)C(=O)N[C@H](C)[C@@H](O)c1ccccc1)OC)N(C)C(=O)[C@@H](NC(=O)[C@H](C(C)C)N(C)C(=O)OCc1ccc(NC(=O)[C@H](CCCNC(N)=O)NC(=O)[C@@H](NC(=O)[C@H](CCC(=O)O)NC(=O)CCOCCC(=O)NCCNc2ncc(-c3cc(C)cc(F)c3)c(N3CCC(N)CC3)c2-c2nc3ccc(Cl)cc3[nH]2)C(C)C)cc1C(=O)NCCNC)C(C)C [Compound 57] , I found its pEC50 recorded as 8.18
